- study system: UniProt:P00915
- Sequence (P00915 whole entry): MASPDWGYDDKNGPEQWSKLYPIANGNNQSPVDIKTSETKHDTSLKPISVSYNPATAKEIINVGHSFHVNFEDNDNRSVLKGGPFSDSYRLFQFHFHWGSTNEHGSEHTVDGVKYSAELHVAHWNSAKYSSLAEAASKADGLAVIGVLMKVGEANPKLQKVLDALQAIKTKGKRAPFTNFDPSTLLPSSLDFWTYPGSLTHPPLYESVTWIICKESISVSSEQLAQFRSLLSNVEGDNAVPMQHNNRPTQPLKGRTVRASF
pIC50: −log10 of the molar value.
measure: pIC50

[[record]]
structure_notation = "CCN(CC)CCOc1ccc(CNS(=O)(=O)c2ccc(S(N)(=O)=O)cc2)cc1"
measure = "pIC50"
measurement = 7.22


---

- study system: Carbonic anhydrase 12 (Homo sapiens)
- Sequence (O43570 whole entry): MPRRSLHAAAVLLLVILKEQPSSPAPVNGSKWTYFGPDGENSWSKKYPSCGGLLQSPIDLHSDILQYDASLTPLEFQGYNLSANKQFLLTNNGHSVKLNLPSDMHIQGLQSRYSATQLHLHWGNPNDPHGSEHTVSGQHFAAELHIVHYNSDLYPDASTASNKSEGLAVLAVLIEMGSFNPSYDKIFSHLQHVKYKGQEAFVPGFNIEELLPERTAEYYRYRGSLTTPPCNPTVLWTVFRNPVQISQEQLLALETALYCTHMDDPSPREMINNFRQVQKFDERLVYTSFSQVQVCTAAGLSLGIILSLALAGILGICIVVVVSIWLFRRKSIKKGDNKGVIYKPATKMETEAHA
measure: IC50 (µM)

[[record]]
structure_notation = "CCN(CC)CCOc1ccc(CNS(=O)(=O)c2ccc(S(N)(=O)=O)cc2)cc1"
measure = "IC50"
measurement = 0.737


---

// each record: one item and its pIC50 for Carbonic anhydrase 4 (Homo sapiens, UniProt P22748)
pIC50: −log10 of the molar value.
measure: pIC50

[[record]]
structure_notation = "CCN(CC)CCOc1ccc(CNS(=O)(=O)c2ccc(S(N)(=O)=O)cc2)cc1"
measure = "pIC50"
measurement = 6.29

[[record]]
structure_notation = "NS(=O)(=O)c1ccc(C(=O)NCCCN2CCOCC2)cc1"
measure = "pIC50"
measurement = 6.21


// provenance: BindingDB's records for doi:10.3109/14756366.2011.649269
